# Test system: Streptococcus pyogenes
# protocol_description: Antimicrobial activity against Streptococcus pyogenes 9604 by two fold serial dilution technique
# Format: functional
test_readout: MIC
Record the result as number plus unit.

{"molecule": "CC1=C(C(=O)O)N2C(=O)[C@@H](N)[C@H]2SC1=O.Cc1ccc(S(=O)(=O)O)cc1", "MIC": "125 µg/mL"}
{"molecule": "CC1=C(C(=O)O)N2C(=O)[C@@H](NC(=O)Cc3cccs3)[C@H]2SC1=O", "MIC": "125 µg/mL"}
{"molecule": "CC(=O)OCC1=C(C(=O)O)N2C(=O)[C@@H](NC(=O)Cc3cccs3)[C@H]2SC1 [CEPHALOTHIN]", "MIC": "0.13 µg/mL"}

Please report the measured MIC for CC(=O)OCC1=C(C(=O)O)N2C(=O)[C@@H](NC(=O)Cc3cccs3)[C@H]2SC1=O
1 µg/mL

Provide MIC value for the following molecule: CC1=C(C(=O)O)N2C(=O)[C@@H](NC(=O)COc3ccccc3)[C@H]2SC1=O
32 µg/mL
